Value source: patent US11319337B2

# target of assay: hERG potassium channel (Homo sapiens, UniProt Q12809)
pIC50: −log10 of the molar value.
measure: pIC50

Recorded pIC50 of CC[C@H]1[C@@H](O)[C@@H]2[C@H]([C@@H](O)C[C@]3(C)[C@@H]([C@H](C)CCC(=O)O)CC[C@@H]23)[C@@]2(C)CCCC[C@@H]12 , please. < 4.00

---

# target of assay: RAR
# assay notes: AlphaScreen nuclear receptor profile (agonist mode), RAR
pEC50: −log10 of the molar value.
measure: pEC50

Record CC[C@H]1[C@@H](O)[C@@H]2[C@H]([C@@H](O)C[C@]3(C)[C@@H]([C@H](C)CCC(=O)O)CC[C@@H]23)[C@@]2(C)CCCC[C@@H]12 : what is its pEC50 with RAR? < 3.52

---

# Tested on: HepG2 cells
# assay notes: In vitro cytotoxicity, LDH release
# Format: cell-based
# cond: Homo sapiens
pEC50: −log10 of the molar value.
measure: pEC50

Recorded pEC50 of CC[C@H]1[C@@H](O)[C@@H]2[C@H]([C@@H](O)C[C@]3(C)[C@@H]([C@H](C)CCC(=O)O)CC[C@@H]23)[C@@]2(C)CCCC[C@@H]12 , please. < 3.52

---

# target of assay: ER
# assay notes: AlphaScreen nuclear receptor profile (agonist mode), ER
pEC50: −log10 of the molar value.
measure: pEC50

Recorded pEC50 of CC[C@H]1[C@@H](O)[C@@H]2[C@H]([C@@H](O)C[C@]3(C)[C@@H]([C@H](C)CCC(=O)O)CC[C@@H]23)[C@@]2(C)CCCC[C@@H]12 , please. < 3.52

---

# target of assay: TR
# assay notes: AlphaScreen nuclear receptor profile (agonist mode), TR
pEC50: −log10 of the molar value.
measure: pEC50

Recorded pEC50 of CC[C@H]1[C@@H](O)[C@@H]2[C@H]([C@@H](O)C[C@]3(C)[C@@H]([C@H](C)CCC(=O)O)CC[C@@H]23)[C@@]2(C)CCCC[C@@H]12 , please. < 3.52

---

# target of assay: RXRα (Homo sapiens)
# Sequence (P19793 1-462): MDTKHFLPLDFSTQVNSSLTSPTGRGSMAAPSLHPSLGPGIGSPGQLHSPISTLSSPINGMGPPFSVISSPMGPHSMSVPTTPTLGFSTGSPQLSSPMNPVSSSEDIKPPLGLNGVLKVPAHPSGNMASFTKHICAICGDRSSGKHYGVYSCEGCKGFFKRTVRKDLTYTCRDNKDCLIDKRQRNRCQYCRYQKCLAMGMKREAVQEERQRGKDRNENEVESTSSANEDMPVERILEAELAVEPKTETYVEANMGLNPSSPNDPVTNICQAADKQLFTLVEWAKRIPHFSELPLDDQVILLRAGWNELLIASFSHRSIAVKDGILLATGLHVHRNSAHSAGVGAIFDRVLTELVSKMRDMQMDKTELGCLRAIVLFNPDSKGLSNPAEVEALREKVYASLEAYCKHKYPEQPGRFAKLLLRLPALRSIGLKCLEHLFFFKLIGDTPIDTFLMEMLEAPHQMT
# assay notes: AlphaScreen nuclear receptor profile (agonist mode), RXRα
measure: EC50

Recorded EC50 of CC[C@H]1[C@@H](O)[C@@H]2[C@H]([C@@H](O)C[C@]3(C)[C@@H]([C@H](C)CCC(=O)O)CC[C@@H]23)[C@@]2(C)CCCC[C@@H]12 , please. > 300 µM
